Target: T1, human factor D (human, UniProt P00746 26-253)
T1 construct: also called fD
T1 sequence (P00746 26-253 limits assumed): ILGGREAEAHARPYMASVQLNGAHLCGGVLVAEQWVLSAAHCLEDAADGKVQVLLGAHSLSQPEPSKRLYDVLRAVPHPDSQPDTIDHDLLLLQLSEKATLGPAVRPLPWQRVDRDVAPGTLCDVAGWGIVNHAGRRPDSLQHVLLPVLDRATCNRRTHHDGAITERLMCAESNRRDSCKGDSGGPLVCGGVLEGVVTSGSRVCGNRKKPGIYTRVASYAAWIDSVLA
Assay: SPR Biacore T200, Fab captured by anti-huFab, human fD injected, 25 C
Method: Antibody Fab fragments were immobilized on a Series S CM5 sensor chip using the anti-huFab capture kit (GE healthcare Cat. #28-9583-25) following a protocol described by the manufacturer. Kinetics of binding were calculated from sensorgrams recorded for injection of 60 μL aliquots of solutions of human factor D varied in concentration from 0.39 nM to 25 nM in 2-fold increments. […]
Entries and their Kd

Known results for binders:
BINDER	Kd
AFD.v1 (VL-D28S) (Fab, V domains shown, Fab variant of aFD.WT) VH: EVQLVQSGPELKKPGASVKVSCKASGYTFTNYGMNWVRQAPGQGLEWMGWINTYTGETTYADDFKGRFVFSLDTSVSTAYLQISSLKAEDTAVYYCEREGGVNNWGQGTLVTVSS VL: DIQVTQSPSSLSASVGDRVTITCITSTSIDDDMNWYQQKPGKVPKLLISGGNTLRPGVPSRFSGSGSGTDFTLTISSLQPEDVATYYCLQSDSLPYTFGQGTKVEIKR	≤ 0.01 nM
AFD.v7 (TM.D92E; VL-D30E:D31S VH-D62E VL-D92E) (Fab, V domains shown, Fab variant of aFD.WT; also called TM.D92E (AFD.v7)) VH: EVQLVQSGPELKKPGASVKVSCKASGYTFTNYGMNWVRQAPGQGLEWMGWINTYTGETTYAEDFKGRFVFSLDTSVSTAYLQISSLKAEDTAVYYCEREGGVNNWGQGTLVTVSS VL: DIQVTQSPSSLSASVGDRVTITCITSTDIESDMNWYQQKPGKVPKLLISGGNTLRPGVPSRFSGSGSGTDFTLTISSLQPEDVATYYCLQSESLPYTFGQGTKVEIKR	≤ 0.01 nM

Now, please, on to the next binder.
For this binder ( AFD.v2 (VL-D30E) (Fab, V domains shown, Fab variant of aFD.WT; also called D30E (AFD.v2)) VH: EVQLVQSGPELKKPGASVKVSCKASGYTFTNYGMNWVRQAPGQGLEWMGWINTYTGETTYADDFKGRFVFSLDTSVSTAYLQISSLKAEDTAVYYCEREGGVNNWGQGTLVTVSS VL: DIQVTQSPSSLSASVGDRVTITCITSTDIEDDMNWYQQKPGKVPKLLISGGNTLRPGVPSRFSGSGSGTDFTLTISSLQPEDVATYYCLQSDSLPYTFGQGTKVEIKR ), measured Kd is ≤ 0.01 nM

This collection of values is drawn from patent US20170143843A1.
